Tested on: HBV viral load, AD38 cells
Experiment: Activity of test compounds on viral production from AD38 cells (viral load by quantitative PCR of the core sequence in supernatant)
Type: cell-based, Hepatitis B virus
Conditions: Hepatitis B virus, 144 h, 10 μM compound, 6 days at 37° C., vs DMSO control wells; Table 6; read-out: AD38 Viral Load (CpAM/DMSO %) at 10 μM
Protocol: AD38 cells were then re-suspended with 10 mL of treatment medium and counted. […] Subsequently viral load production was assayed by quantitative PCR of the core sequence. […] Viral load was quantitated against known standards by using ViiA™ 7 Software. […]
Label met when activity at 10 µM >= 70%; otherwise not met.

// below: answered molecules
{"molecule": "COc1ccc(S(=O)(=O)N2CCN(c3nc(C)cc(Nc4cccnc4)n3)CC2)cc1 [Compound 1234]", "assigned label": "met"}
{"molecule": "CC(C)c1cc(Oc2ccc(F)cc2)nc(N2CCN(S(=O)(=O)c3ccc(C(F)(F)F)cc3)CC2)n1 [Compound 1296]", "assigned label": "met"}
{"molecule": "Cc1ccc(Nc2cc(C)nc(N3CCN(S(=O)(=O)c4cc(C(=O)Nc5cc(F)c(F)c(F)c5)ccc4F)CC3)n2)cc1 [Compound 1286]", "assigned label": "not met"}

Here's the next entry for you.
# bool: activity at 10 µM of COc1ccc(S(=O)(=O)N2CCN(c3nc(Nc4ccc(C)cc4)cc(-c4ncc[nH]4)n3)CC2)cc1 [Compound 1274] >= 70%
not met

----------
Tested on: AD38 cells
Test: AD38 viability normalized to DMSO control
Type: cell-based
Settings: 10 μM compound, vs DMSO control; Table 9
property label: AD38 Viability Normalized Result (CPAM/DMSO %) at 10 μM
Note: unit % is implicit; provide only the numeric part.

See these solved cases before continuing.
{"compound": "C[C@@H](Oc1ccc(S(=O)(=O)N2CCN(c3nc(Nc4ccc(F)cc4)cc(C(F)(F)F)n3)CC2)cc1)C(=O)O [Compound 1409]", "measure unit": "%", "data value": 108}
{"compound": "COc1ccc(S(=O)(=O)N2CCN(c3nc(C)cc(Nc4ccc(C#N)cc4)n3)C(C)C2)cc1 (stereo not shown) [Compound 1363]", "measure unit": "%", "data value": 93}

Query AD38 Viability Normalized Result (CPAM/DMSO %) at 10 μM on AD38 cells for COC(=O)c1ccc(S(=O)(=O)N2CCN(c3nc(Nc4ccc(F)cc4)cc(C(F)(F)F)n3)CC2)cc1 [Compound 1386]
118

Ok, now COC(=O)Cc1ccc(S(=O)(=O)N2CCN(c3nc(Nc4ccc(F)cc4)cc(C(F)(F)F)n3)CC2)cc1 [Compound 1408]
107

Ok, now Cc1cc(Nc2ccc(F)cc2)nc(N2CCN(S(=O)(=O)c3ccc(OCCCC(=O)O)cc3)CC2)n1 [Compound 1394]
79

Ok, now Cc1cc(Nc2ccc(F)cc2)nc(N2CCN(S(=O)(=O)c3ccc(OCCN(C)C)cc3)CC2)n1 [Compound 1378]
1

Ok, now CCOc1ccc(S(=O)(=O)N2CCN(c3nc(C)cc(Nc4ccc(F)cc4)n3)CC2)cc1 [Compound 1336]
103

----------
Test system: AD38 cells
Test: AD38 viability normalized to DMSO control
Assay type: cell-based
Conditions: 10 μM compound, vs DMSO control; Table 9
Experimental: AD38 cells were then re-suspended with 10 mL of treatment medium and counted. Wells of a collagen coated 96-well NUNC microtiter plate were seeded at 50,000/well in 180 μL of treatment medium, and 20 μL of either 10% DMSO (Control) or a 10× solution of test compound in 10% DMSO in treatment media was added for a final compound concentration 1, 3, or 10 μM (1.0% final [DMSO]) and plates were incubated for 6 days at 37° C.
property label: AD38 Viability Normalized Result (CPAM/DMSO %) at 10 μM
Note: unit % is implicit; provide only the numeric part.

Query AD38 Viability Normalized Result (CPAM/DMSO %) at 10 μM on AD38 cells for "CCCCOc1ccc(S(=O)(=O)N2CCN(c3nc(Nc4ccc(C#N)cc4)cc(-c4nccs4)n3)CC2)cc1"
97

----------
Tested on: AD38 cells
Experiment: AD38 viability normalized to DMSO control
Assay type: cell-based
Conditions: 10 μM compound, vs DMSO control; Table 6
Method: AD38 cells were then re-suspended with 10 mL of treatment medium and counted. Wells of a collagen coated 96-well NUNC microtiter plate were seeded at 50,000/well in 180 μL of treatment medium, and 20 μL of either 10% DMSO (Control) or a 10× solution of test compound in 10% DMSO in treatment media was added for a final compound concentration 1, 3, or 10 μM (1.0% final [DMSO]) and plates were incubated for 6 days at 37° C.
property label: AD38 Viability Normalized Result (CPAM/DMSO %) at 10 μM
Note: unit % is implicit; provide only the numeric part.

{"smiles repr": "CN(C)c1cc(Oc2ccc(F)cc2)nc(N2CCN(S(=O)(=O)c3ccccc3)CC2)n1", "data value": 112}

Tell me the measured AD38 Viability Normalized Result (CPAM/DMSO %) at 10 μM of "COc1ccc(S(=O)(=O)N2CCN(c3nc(Nc4ccc(C)cc4)cc(-c4nccs4)n3)CC2)cc1" , please.
103

Ok, now "Cc1ccc(S(=O)(=O)N2CCN(c3nc(Oc4ccc(F)cc4)cc(-n4cnnc4)n3)CC2)cc1"
81

Ok, now "COc1ccc(S(=O)(=O)N2CCN(c3nc(C)cc(Oc4ccc(C)cc4)n3)CC2)cc1"
107

Ok, now "COc1cccc(S(=O)(=O)N2CCN(c3cc(C)cc(Nc4ccc(C)cc4)n3)CC2)c1"
105

Ok, now "COc1ccc(S(=O)(=O)N2CCN(c3nc(C)cc(Nc4ccc(C)cn4)n3)CC2)cc1"
98

Ok, now "Cc1ccc(Nc2cc(C)nc(N3CCN(S(=O)(=O)c4cccc5ccccc45)CC3)n2)cc1"
107

Ok, now "O=S(=O)(c1ccc(F)cc1)N1CCN(c2nc(Nc3ccc(F)cc3)cc(-n3cnnc3)n2)CC1"
96

Ok, now "COc1ccc(S(=O)(=O)N2CCN(c3cc(C)nc(Nc4ccc(C)cc4)n3)CC2)cc1"
89

Ok, now "COc1ccc(S(=O)(=O)N2CCN(c3nc(NCCN(C)C)cc(Nc4ccc(C)cc4)n3)CC2)cc1"
56

Ok, now "Cc1ccc(Nc2cc(C)nc(N3CCN(S(=O)(=O)c4c[nH]cn4)CC3)n2)cc1"
123

Ok, now "COc1ccc(S(=O)(=O)N2CCN(c3nc(C)cc(Nc4cccnc4)n3)CC2)cc1"
101

----------
Test system: HBV viral load, AD38 cells
Assay: Activity of test compounds on viral production from AD38 cells (viral load by quantitative PCR of the core sequence in supernatant)
Type: cell-based, Hepatitis B virus
Conditions: 10 μM compound, 6 days at 37° C., vs DMSO control wells; Table 9
Overview of reported AD38 Viral Load (CpAM/DMSO %) at 10 μM across a group of compounds:
Note: unit % is implicit; provide only the numeric part.

See these solved cases before continuing.
{"compound": "CCCCOc1ccc(S(=O)(=O)N2CCN(c3nc(Nc4ccc(F)cc4)cc(-c4nccs4)n3)CC2)cc1 [Compound 1368]", "AD38 Viral Load (CpAM/DMSO %) at 10 μM": 147}
{"compound": "COC(=O)CCCOc1ccc(S(=O)(=O)N2CCN(c3nc(Nc4ccc(F)cc4)cc(C(F)(F)F)n3)CC2)cc1", "AD38 Viral Load (CpAM/DMSO %) at 10 μM": 5}
{"compound": "O=S(=O)(c1ccc(F)cc1)N1CCN(c2nc(Nc3ccc(F)cc3)cc(-c3nccs3)n2)CC1", "AD38 Viral Load (CpAM/DMSO %) at 10 μM": 43}

Tell me the measured AD38 Viral Load (CpAM/DMSO %) at 10 μM of "COC(=O)Cc1ccc(S(=O)(=O)N2CCN(c3nc(C)cc(Nc4ccc(F)cc4)n3)CC2)cc1" , please.
79

----------
System: AD38 cells
Experiment: AD38 viability normalized to DMSO control
Format: cell-based
Conditions: 10 μM compound, vs DMSO control; Table 6
property label: AD38 Viability Normalized Result (CPAM/DMSO %) at 10 μM
Note: unit % is implicit; provide only the numeric part.

See these solved cases before continuing.
{"compound": "COc1ccc(S(=O)(=O)N2CCN(c3nc(Nc4ccc(C)cc4)cc(-n4ccnc4)n3)CC2)cc1 [Compound 1229]", "measure unit": "%", "data value": 92}
{"compound": "O=S(=O)(c1cccc(C(F)(F)F)c1)N1CCN(c2nc(Nc3ccc(F)cc3)cc(-n3cnnc3)n2)CC1 [Compound 1313]", "measure unit": "%", "data value": 93}

Tell me the measured AD38 Viability Normalized Result (CPAM/DMSO %) at 10 μM of COc1ccc(S(=O)(=O)N2CCN(c3nc(Nc4ccc(C)cc4)cc(N4CCN(C)CC4)n3)CC2)cc1 [Compound 1207] , please.
0

Ok, now COc1ccc(S(=O)(=O)N2CCN(c3nc(C)cc(S(=O)(=O)c4ccc(C)cc4)n3)CC2)cc1 [Compound 1160]
110

Ok, now COc1ccc(S(=O)(=O)N2CCN(c3nc(Nc4ccc(C)cc4)cc(NC(C)(C)C)n3)CC2)cc1 [Compound 1249]
65

Ok, now O=S(=O)(c1ccc(C(F)(F)F)cc1)N1CCN(c2nc(Oc3ccc(F)cc3)cc(-n3cnnc3)n2)CC1 [Compound 1308]
88

Ok, now COc1ccc(S(=O)(=O)N2CCN(c3nc(Nc4ccc(C)cc4)cc(N4CCCC4=O)n3)CC2)cc1 [Compound 1212]
94

Ok, now O=S(=O)(c1ccc(F)cc1)N1CCN(c2nc(Oc3ccc(F)cc3)cc(-n3cnnc3)n2)CC1 [Compound 1307]
94
